Reference for the values: patent US20130224224A1

target-entity: T1, human CX3CR1 (human, UniProt P49238 1-355)
T1 construct: overexpressed on CHO, BA/F3 or HEK293T cells; also called huCX3CR1; hCX3CR1
T1 sequence: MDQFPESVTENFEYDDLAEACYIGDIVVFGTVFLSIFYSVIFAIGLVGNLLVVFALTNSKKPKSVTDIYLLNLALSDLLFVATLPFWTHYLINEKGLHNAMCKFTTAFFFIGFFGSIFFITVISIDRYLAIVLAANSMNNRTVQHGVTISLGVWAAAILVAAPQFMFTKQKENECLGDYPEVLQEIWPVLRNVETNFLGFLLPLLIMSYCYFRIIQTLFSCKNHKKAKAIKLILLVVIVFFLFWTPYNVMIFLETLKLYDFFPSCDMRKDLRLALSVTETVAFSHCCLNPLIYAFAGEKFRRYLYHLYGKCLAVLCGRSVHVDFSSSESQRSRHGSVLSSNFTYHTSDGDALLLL
assay-name: A647-fractalkine competition FACS, HEK293-huCX3CR1
I'd appreciate it if you could supply IC50 values for the items below.
Give the value in nM but do not write nM after it.

Req: What value of measured IC50 is listed for CX3CR1BIIPMP61B2 (VHH, also called 61B02; not shown: C-terminal c-myc and His6 tags) VHH: EVQLVESRGGSVQAGASLRLSCAASGSIFSSNAMAWYRQAPGKQRDLVAVINTVGITKYADSVKGRFTISRDNAKNTVYLQMNSLKPEDTAVYYCTSDARRGWDTRYWGQGTQVTVSS ?
Resp: 10

Req: Further, for CX3CR1BIIPMP54B3 (VHH, also called 54B03; not shown: C-terminal c-myc and His6 tags) VHH: EVQLVESGGGSVQAGESLRLSCAASGSIFSSNAMAWYRQAPGKQRDLVAAINSVGITKYADSVKGRFTISRDNAKNTVYLQMNSLKPEDTAVYYCTSDPRRGWDTRYWGQGTQVTVSS ?
Resp: 67
